# Tested Target: HGFR (Homo sapiens)
# Construct: endogenous in cells
# Test Details: Inhibitory activity against the HGFR autophosphorylation using ELISA (MKN-45 cells)
# Measurement Conditions: 1 hr with test substance
# IC50 per record follows
Write the answer as a number in µM, unit excluded.

Mol	IC50, µM
O=C(Nc1cc(Oc2ccc(NC(=O)C3(C(=O)Nc4ccc(F)cc4)CC3)cc2)ccn1)N1CCC(N2CCC2)CC1	0.037
CN(C)C1CN(C2CCN(C(=O)Nc3cc(Oc4ccc(NC(=O)C5(C(=O)Nc6ccc(F)cc6)CC5)c(F)c4)ccn3)CC2)C1	0.019
O=C(Nc1cc(Oc2ccc(NC(=O)C3(C(=O)Nc4ccc(F)cc4)CC3)cc2)ccn1)N1CCOCC1	0.071

Below: the item to evaluate.
Could you share which IC50 value was measured for CN1CCN(C2CCN(C(=O)Nc3cc(Oc4cc(F)c(NC(=O)C5(C(=O)Nc6ccc(F)cc6)CC5)cc4F)ncn3)CC2)CC1 ?
0.015

* * *

# Tested Target: HGFR (Homo sapiens)
# Construct: endogenous in cells
# Test Details: Inhibitory activity against the HGFR autophosphorylation using ELISA (MKN-45 cells)
# Measurement Conditions: 1 hr with test substance
# pIC50 per record follows
# pIC50 is unitless: minus log10 of the molar concentration; print number only

Could you share which pIC50 value was measured for CN(C)CC1CCN(C(=O)Nc2cc(Oc3ccc(NC(=O)C4(C(=O)Nc5ccc(F)cc5)CC4)c(F)c3)ccn2)CC1 ?
7.85

* * *

# Tested Target: HGFR (Homo sapiens, UniProt P08581)
# Construct: endogenous in cells
# Sequence (P08581 25-1390): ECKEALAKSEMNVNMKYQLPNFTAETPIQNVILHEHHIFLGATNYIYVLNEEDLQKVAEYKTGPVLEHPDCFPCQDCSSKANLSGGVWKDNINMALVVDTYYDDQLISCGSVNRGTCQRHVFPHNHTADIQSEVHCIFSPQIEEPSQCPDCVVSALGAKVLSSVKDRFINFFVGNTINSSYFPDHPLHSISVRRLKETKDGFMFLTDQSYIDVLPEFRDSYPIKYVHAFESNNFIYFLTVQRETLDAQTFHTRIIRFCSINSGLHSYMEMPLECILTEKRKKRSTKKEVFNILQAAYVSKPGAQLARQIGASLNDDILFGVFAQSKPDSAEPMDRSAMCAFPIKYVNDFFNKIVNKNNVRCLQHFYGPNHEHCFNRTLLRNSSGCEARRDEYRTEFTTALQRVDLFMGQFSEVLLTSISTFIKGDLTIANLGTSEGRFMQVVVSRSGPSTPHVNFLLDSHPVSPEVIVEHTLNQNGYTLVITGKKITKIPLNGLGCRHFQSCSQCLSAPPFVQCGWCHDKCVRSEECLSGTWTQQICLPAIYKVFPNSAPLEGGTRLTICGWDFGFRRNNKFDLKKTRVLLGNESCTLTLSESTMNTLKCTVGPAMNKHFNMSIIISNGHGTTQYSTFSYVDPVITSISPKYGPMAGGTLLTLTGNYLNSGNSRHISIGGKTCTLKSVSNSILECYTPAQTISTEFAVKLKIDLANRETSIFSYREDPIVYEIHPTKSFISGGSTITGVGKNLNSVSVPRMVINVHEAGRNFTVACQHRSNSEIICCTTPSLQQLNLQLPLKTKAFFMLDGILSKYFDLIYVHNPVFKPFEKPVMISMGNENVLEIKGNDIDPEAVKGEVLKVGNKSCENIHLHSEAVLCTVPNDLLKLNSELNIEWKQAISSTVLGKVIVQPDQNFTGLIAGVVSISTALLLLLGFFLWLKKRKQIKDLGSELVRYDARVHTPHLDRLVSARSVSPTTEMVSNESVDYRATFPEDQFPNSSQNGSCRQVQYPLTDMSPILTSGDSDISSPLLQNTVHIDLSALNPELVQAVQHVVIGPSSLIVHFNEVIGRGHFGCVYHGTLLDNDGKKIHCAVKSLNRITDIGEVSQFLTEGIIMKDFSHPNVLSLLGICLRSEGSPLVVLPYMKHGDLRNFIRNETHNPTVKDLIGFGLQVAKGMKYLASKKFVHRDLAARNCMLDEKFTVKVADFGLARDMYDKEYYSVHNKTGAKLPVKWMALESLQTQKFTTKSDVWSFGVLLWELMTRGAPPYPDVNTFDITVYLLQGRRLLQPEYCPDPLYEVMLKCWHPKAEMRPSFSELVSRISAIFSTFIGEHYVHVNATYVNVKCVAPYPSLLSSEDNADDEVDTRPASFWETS
# Test Details: Inhibitory activity against the HGFR autophosphorylation using ELISA (MKN-45 cells)
# Measurement Conditions: 1 hr with test substance
Criterion: IC50 strictly less than 10 nM. Met: met. Not met: not met.

Mol	Tested Target	Label Class
CN(C)C1CCN(C(=O)Nc2cc(Oc3cc(F)c(NC(=O)C4(C(=O)Nc5ccc(F)cc5)CC4)cc3F)ncn2)CC1	HGFR (Homo sapiens, UniProt P08581)	not met
CCN(CC)CCCNC(=O)Nc1cc(Oc2ccc(NC(=O)C3(C(=O)Nc4ccc(F)cc4)CC3)c(Cl)c2)ccn1	HGFR (Homo sapiens, UniProt P08581)	not met
O=C(Nc1cc(Oc2ccc(NC(=O)C3(C(=O)Nc4ccc(F)cc4)CC3)c(F)c2)ccn1)N1CCC(CO)CC1	HGFR (Homo sapiens, UniProt P08581)	not met
CCN1CCC(N(C)C(=O)Nc2cc(Oc3ccc(NC(=O)C4(C(=O)Nc5ccccc5)CC4)c(F)c3)ccn2)CC1	HGFR (Homo sapiens, UniProt P08581)	met
O=C(Nc1cc(Oc2ccc(NC(=O)C3(C(=O)Nc4ccc(F)cc4)CC3)cc2F)ccn1)N1CC(CO)C1	HGFR (Homo sapiens, UniProt P08581)	met

Next up:
Does the reported IC50 of O=C(Nc1cc(Oc2cc(F)c(NC(=O)C3(C(=O)Nc4ccc(F)cc4)CC3)cc2F)ccn1)N1CC(CN2CCC2)C1 stay below 10 nM?
not met

* * *

# pIC50 per record follows
# Tested Target: HGFR (Homo sapiens, UniProt P08581)
# Construct: endogenous in cells
# Test Details: Inhibitory activity against the HGFR autophosphorylation using ELISA (MKN-45 cells)
# Measurement Conditions: 1 hr with test substance
# pIC50 is unitless: minus log10 of the molar concentration; print number only

Mol	Measurement Name	Value Observed
CN1CCC(N(C)C(=O)Nc2cc(Oc3ccc(NC(=O)C4(C(=O)Nc5ccc(F)cc5)CC4)c(F)c3)ccn2)CC1	pIC50	7.72
O=C(Nc1cc(Oc2ccc(NC(=O)C3(C(=O)Nc4ccc(F)cc4)CC3)cc2F)ncn1)N1CCOCC1	pIC50	6.92
CN1CCN(C2CCN(C(=O)Nc3cc(Oc4ccc(NC(=O)C5(C(=O)Nc6ccccc6)CC5)c(F)c4)ccn3)CC2)CC1	pIC50	7.62
CN1CCC(N(C)C(=O)Nc2cc(Oc3ccc(NC(=O)C4(C(=O)Nc5cccnc5)CC4)c(F)c3)ccn2)CC1	pIC50	6.42
CN1CC(N2CCN(C(=O)Nc3cc(Oc4ccc(NC(=O)C5(C(=O)Nc6ccc(F)cc6)CC5)c(F)c4)ccn3)CC2)C1	pIC50	7.82

Could you share which pIC50 value was measured for CN1CCN(C2CCN(C(=O)Nc3cc(Oc4ccc(NC(=O)C5(C(=O)Nc6ccc(F)cc6)CC5)cc4)ccn3)CC2)CC1 ?
7.82

Try the compound O=C(Nc1cc(Oc2ccc(NC(=O)C3(C(=O)Nc4ccc(F)cc4)CC3)c(F)c2)ccn1)N1CCC(CN2CCC2)CC1
8.18

* * *

# Tested Target: HGFR (Homo sapiens)
# Construct: endogenous in cells
# Test Details: Inhibitory activity against the HGFR autophosphorylation using ELISA (MKN-45 cells)
# Measurement Conditions: 1 hr with test substance
# pIC50 per record follows
# pIC50 is unitless: minus log10 of the molar concentration; print number only

Consider the worked cases shown below.
Mol	Measurement Name	Value Observed
CN(C)[C@H]1CCN(C(=O)Nc2cc(Oc3ccc(NC(=O)C4(C(=O)Nc5ccccc5)CC4)c(F)c3)ccn2)C1	pIC50	7.77
O=C(Nc1cc(Oc2ccc(NC(=O)C3(C(=O)Nc4ccc(F)cc4)CC3)cc2)ccn1)N1CCC(CN2CCCC2)CC1	pIC50	7.52
CN1CCN(C(=O)Nc2cc(Oc3ccc(NC(=O)C4(C(=O)Nc5ccc(F)cc5)CC4)c(F)c3)ccn2)CC1	pIC50	7.70
CN(C)[C@@H]1CCN(C(=O)Nc2cc(Oc3ccc(NC(=O)C4(C(=O)Nc5ccc(F)cc5)CC4)c(F)c3)ccn2)C1	pIC50	7.52
CN(C)CC1CCN(C(=O)Nc2cc(Oc3ccc(NC(=O)C4(C(=O)Nc5ccc(F)cc5)CC4)cc3F)ccn2)CC1	pIC50	7.66

Could you share which pIC50 value was measured for CN1CCN(C2CCN(C(=O)Nc3cc(Oc4ccc(NC(=O)C5(C(=O)Nc6ccc(F)cc6)CC5)cc4F)ccn3)CC2)CC1 ?
7.66

Try the compound O=C(Nc1cc(Oc2ccc(NC(=O)C3(C(=O)Nc4ccc(F)cc4)CC3)c(F)c2)ccn1)N1CC[C@H](O)C1
7.77

Try the compound O=C(Nc1cc(Oc2ccc(NC(=O)C3(C(=O)Nc4ccc(F)cc4)CC3)c(F)c2)ccn1)N1CC(N2CCC2)C1
8.10

Try the compound CCN(CC)CCCNC(=O)Nc1cc(Oc2ccc(NC(=O)C3(C(=O)Nc4ccc(F)cc4)CC3)cc2C)ccn1
6.36

Try the compound COC1CN(C(=O)Nc2cc(Oc3ccc(NC(=O)C4(C(=O)Nc5ccc(F)cc5)CC4)cc3F)ccn2)C1
7.80

* * *

# Tested Target: HGFR (Homo sapiens, UniProt P08581)
# Construct: endogenous in cells
# Test Details: Inhibitory activity against the HGFR autophosphorylation using ELISA (MKN-45 cells)
# Measurement Conditions: 1 hr with test substance
Measurement Name: IC50 (nM)
Write the answer as a number in nM, unit excluded.

Mol	IC50 [nM]
CN1CCC(N(C)C(=O)Nc2cc(Oc3ccc(NC(=O)C4(C(=O)Nc5ccc(F)cc5F)CC4)c(F)c3)ccn2)CC1	41

Could you share which IC50 value was measured for O=C(Nc1cc(Oc2ccc(NC(=O)C3(C(=O)Nc4ccc(F)cc4)CC3)cc2)ccn1)N1CCC1 ?
27

Try the compound O=C(Nc1cc(Oc2ccc(NC(=O)C3(C(=O)Nc4ccc(F)cc4)CC3)cc2F)ccn1)N1CCC(CO)CC1
14

Try the compound CN(C)C1CN(C(=O)Nc2cc(Oc3ccc(NC(=O)C4(C(=O)Nc5ccc(F)cc5)CC4)c(F)c3)ccn2)C1
30
